Where do these numbers come from? They come from ChEMBL document CHEMBL1132167.

# Lookup of reported Relative JC-1 accumulation keyed by entry
Biological target: ATP-dependent translocase ABCB1 (Homo sapiens, UniProt P08183)
Sequence (P08183 whole entry): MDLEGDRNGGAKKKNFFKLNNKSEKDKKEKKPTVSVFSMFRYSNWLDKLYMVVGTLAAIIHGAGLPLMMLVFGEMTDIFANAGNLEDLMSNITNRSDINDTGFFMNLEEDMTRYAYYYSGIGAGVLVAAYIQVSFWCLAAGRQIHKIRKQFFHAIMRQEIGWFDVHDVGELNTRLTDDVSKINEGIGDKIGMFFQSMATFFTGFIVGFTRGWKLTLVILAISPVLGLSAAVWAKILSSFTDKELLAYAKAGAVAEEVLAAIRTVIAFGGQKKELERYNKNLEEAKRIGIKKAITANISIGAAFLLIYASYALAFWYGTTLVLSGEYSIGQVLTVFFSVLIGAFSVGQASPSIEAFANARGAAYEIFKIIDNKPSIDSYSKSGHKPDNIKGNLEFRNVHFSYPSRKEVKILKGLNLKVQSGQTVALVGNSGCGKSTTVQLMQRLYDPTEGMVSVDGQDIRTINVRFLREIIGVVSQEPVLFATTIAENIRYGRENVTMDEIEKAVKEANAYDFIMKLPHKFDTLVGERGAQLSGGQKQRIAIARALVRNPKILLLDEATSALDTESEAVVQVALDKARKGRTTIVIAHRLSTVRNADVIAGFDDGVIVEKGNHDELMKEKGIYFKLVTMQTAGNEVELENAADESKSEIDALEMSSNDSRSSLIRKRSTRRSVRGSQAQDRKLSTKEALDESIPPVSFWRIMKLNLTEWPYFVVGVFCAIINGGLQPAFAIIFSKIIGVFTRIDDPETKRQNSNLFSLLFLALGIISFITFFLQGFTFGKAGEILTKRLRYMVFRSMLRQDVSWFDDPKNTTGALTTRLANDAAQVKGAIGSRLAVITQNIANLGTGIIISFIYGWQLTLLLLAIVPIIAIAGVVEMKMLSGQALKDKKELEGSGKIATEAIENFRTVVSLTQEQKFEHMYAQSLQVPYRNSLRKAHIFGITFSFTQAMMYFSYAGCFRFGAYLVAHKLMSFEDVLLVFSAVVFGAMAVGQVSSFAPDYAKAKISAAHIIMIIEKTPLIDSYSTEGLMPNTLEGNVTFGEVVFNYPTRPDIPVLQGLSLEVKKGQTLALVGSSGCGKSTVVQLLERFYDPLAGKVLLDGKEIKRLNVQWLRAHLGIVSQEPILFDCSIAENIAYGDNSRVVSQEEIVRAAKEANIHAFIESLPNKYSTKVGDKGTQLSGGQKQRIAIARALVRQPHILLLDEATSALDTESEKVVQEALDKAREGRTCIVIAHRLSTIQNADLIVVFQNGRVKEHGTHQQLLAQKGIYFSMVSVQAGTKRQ
Experiment: Pgp transport inhibitory activity at 5 uM was measured by JC-1 accumulation assay method using JC-1 as substrate
Format: functional
// return a plain number; no unit text

>  <compound>
COc1ccc(C2CC(=O)c3c(OC(=O)C(C)(C)C)cc(OCC(=O)N4CCN(Cc5ccc(OC)c(OC)c5OC)CC4)cc3O2)cc1OC(=O)C(C)(C)C (centres undefined)

>  <Relative JC-1 accumulation>
82

$$$$
>  <compound>
CCOC(=O)COc1cc(-c2cc(=O)c3c(O)cc(OCC(=O)N4CCN(Cc5ccccc5)CC4)cc3o2)ccc1OC

>  <Relative JC-1 accumulation>
35

$$$$

Item: `CCOC(=O)COc1cc(-c2cc(=O)c3c(O)cc(OCC(=O)N4CCN(Cc5ccc(OC)c(OC)c5)CC4)cc3o2)ccc1OC` Test system: ATP-dependent translocase ABCB1 (Homo sapiens, UniProt P08183) Read-out: Relative JC-1 accumulation Value: ?
28

Give recorded Relative JC-1 accumulation with ATP-dependent translocase ABCB1 (Homo sapiens, UniProt P08183) for the following compound: `COc1ccc(-c2cc(=O)c3c(O)cc(O[C@@H]4O[C@H](CO[C@@H]5O[C@@H](C)[C@H](O)[C@@H](O)[C@H]5O)[C@@H](O)[C@H](O)[C@H]4O)cc3o2)cc1OCC(=O)N1CCN(Cc2ccc(OC)c(OC)c2OC)CC1`
0

So what Relative JC-1 accumulation did `COc1ccc(-c2cc(=O)c3c(O)cc(O)cc3o2)cc1OCC(=O)N1CCN(Cc2ccc(OC)c(OC)c2OC)CC1` get with ATP-dependent translocase ABCB1 (Homo sapiens, UniProt P08183)?
0

Item COc1ccc(C2CC(=O)c3c(OC(C)=O)cc(OCC(=O)N4CCN(Cc5ccc(OC)c(OC)c5OC)CC4)cc3O2)cc1OC(C)=O (centres undefined) with ATP-dependent translocase ABCB1 (Homo sapiens, UniProt P08183) - Relative JC-1 accumulation?
55

Find the measured Relative JC-1 accumulation: item `CCOC(=O)COc1cc(-c2cc(=O)c3c(O)cc(OCC(=O)N4CCN(Cc5ccc(Cl)cc5)CC4)cc3o2)ccc1OC` , target or system ATP-dependent translocase ABCB1 (Homo sapiens, UniProt P08183).
14

What measured Relative JC-1 accumulation is associated with COc1ccc(C2CC(=O)c3c(O)cc(OCC(=O)N4CC[N+](C)(Cc5ccc(OC)c(OC)c5OC)CC4)cc3O2)cc1O.[I-] (centres undefined) on ATP-dependent translocase ABCB1 (Homo sapiens, UniProt P08183)?
0

Provide the documented Relative JC-1 accumulation with ATP-dependent translocase ABCB1 (Homo sapiens, UniProt P08183) as the system for `CCOC(=O)COc1cc(-c2cc(=O)c3c(O)cc(OCC(=O)N4CCN(Cc5cc(OC)c(OC)c(OC)c5)CC4)cc3o2)ccc1OC`
26
